Assay: CCTE_Mundy_HCI_Cortical_NOG_NeuriteLength: CCTE's Neurite Outgrowth Assay in rat cortical cells for Neurite Length, Mundy Lab (AID 2284213)
Activity calls are given as the source filed them. How the source made its calls: active means hit-call score of the fitted dose curve at least 0.9, where 1 is the maximum; inactive means score below 0.9.
Hi! Could you answer with just one of these? active, inactive

| compound | class.label |
| --- | --- |
| CNC(=N[N+](=O)[O-])NCC1CCOC1 (configuration not stated) | inactive |
| COP(=O)(OC)SCN1C(=O)c2ccccc2C1=O | inactive |
| [Cd+2].[Cl-].[Cl-] | active |
| CC1(C)[C@H](C=C(Cl)Cl)[C@H]1C(=O)OCc1c(F)c(F)cc(F)c1F | active |
| Brc1ccc(Oc2ccc(Br)cc2Br)c(Br)c1 | active |
| C#CCN(C)[C@H](C)Cc1ccccc1 | inactive |
| CC1(C)[C@H](C=C(Cl)Cl)[C@@H]1C(=O)O[C@@H](C#N)c1cccc(Oc2ccccc2)c1 | inactive |
| CC1(C)C(C=C(Cl)Cl)C1C(=O)O[C@H](C#N)c1cccc(Oc2ccccc2)c1 (some centres not stated) | active |
| CCOP(=S)(OCC)SCS(=O)C(C)(C)C (configuration not stated) | inactive |
| CN1C(=O)CN=C(c2ccccc2)c2cc(Cl)ccc21 | inactive |

# lookup: test call for [CH3][Sn]([CH3])[CH3]
active

# lookup: test call for CCC[CH2][Sn]([CH2]CCC)([CH2]CCC)[O][Sn]([CH2]CCC)([CH2]CCC)[CH2]CCC
active
